Test system: Wolbachia pipientis
Assay: Anti-Wolbachia Cell-Based Screen
Assay type: functional
Design: scale not given: in the data most compounds retested in dose-response had high values
Settings: 5 µM
The campaign covered roughly 48,000 compounds. About 13,000 (27%) showed an effect of 50% or more. The list shows a part of the results.
Metric: Percent Effect (%)
Kindly answer with a numeric value in %, unit omitted.

CC(C)N1[C@@H](C(=O)NCCN(C)C)C[C@H]2CN(c3ncccn3)C[C@H]21.O=C(O)C(F)(F)F.O=C(O)C(F)(F)F.O=C(O)C(F)(F)F | -8.926
CN(C)CCOCC1CN(C(=O)c2ccsc2)Cc2ccnn2C1.O=C(O)C(F)(F)F.O=C(O)C(F)(F)F (stereo not drawn) | -7.951
O=C(O)C(F)(F)F.O=C1N(c2ccsc2)CCC12CCCN(CC1CC1)C2 (stereo not drawn) | 0.74
Cc1ccc2oc([C@H]3CCN(Cc4ccccc4)C3)nc2c1 | -4.088
CC(C)Nc1nc2c(cc1C(=O)NCC1CC1)CCNCC2.O=C(O)C(F)(F)F.O=C(O)C(F)(F)F | -11.9
O=C(NC[C@H]1OC[C@@H](NCc2ccc(F)cc2)[C@@H]1O)c1ccncc1 | -2.517
c1cncc(-c2ccc3c(c2)C2(CCNCC2)CC3)c1 | 1.24

// next item, Percent Effect requested
Q) // Percent Effect lookup, key: `O=C(O)C(F)(F)F.O=C(c1ccsc1)N1C[C@@H]2CCN(c3cccnc3)C[C@@H]2C1`
A) -7.879

* * *

System: Wolbachia pipientis
Assay: Anti-Wolbachia Cell-Based Screen
Type: functional
Set-up: scale not given: in the data most compounds retested in dose-response had high values
Details: 5 µM
Among all 48,000 compounds or so, about 13,000 (27%) showed an effect of 50% or more. Some of the results follow.
Metric: Percent Effect (%)
Write the answer as a number in %, unit excluded.

Reference set (3 entries):
CCN(c1cccc(F)c1)S(=O)(=O)c1cc(C(=O)O)cc2c1CCC2 | -8.987
CN(C)c1cc(CNC(=O)c2cc(Cl)ccn2)ccn1 | 157.2
CN(C)c1cc(CNC(=O)c2cccnc2O)ccn1 | 123.9

Moving on to another compound below.
Q) Name the recorded Percent Effect for CCc1nc(CNC(=O)c2ccc(C(C)N3CCCCC3)o2)cc(=O)[nH]1 (centres undefined) .
A) -0.08952

* * *

Overview of reported Percent Effect across a group of compounds:
Tested on: Wolbachia pipientis
Test: Anti-Wolbachia Cell-Based Screen
Format: functional
Set-up: scale not given: in the data most compounds retested in dose-response had high values
Settings: 5 µM
The whole screen tested about 48,000 compounds, of which about 13,000 (27%) showed an effect of 50% or more. The list shows a part of the results.
Quick note: give the figure in %, leave out the unit.

Solved entries (count: 8):
COc1ccc(CN2CCN(C(C)c3nc(C4CC4)no3)CC2)cc1 (stereo unspecified) | 8.61
COc1ccc(OC)c(CN2CCCCCC2c2cccs2)c1 (stereo unspecified) | -3.603
Cn1c(SCC2OCCc3ccccc32)n[nH]c1=O (stereo unspecified) | -11.92
Cc1nn(C)cc1C(=O)N1CCC(CSc2ccccc2)C1 (stereo unspecified) | -5
COCC(NC(=O)c1ccc[nH]1)c1cccc(C(F)(F)F)c1 (stereo unspecified) | -9.811
Cn1c(CN2CCOC(Cn3cncn3)C2)nc2ccccc21 (stereo unspecified) | -24
CCCN1CC2(CCN(C)CC2)CC1C(=O)NCCn1nc(C)nc1C (stereo unspecified) | -19.15
Cc1cnn(CC2CN(Cc3nc4ccccc4o3)CCO2)c1 (stereo unspecified) | 139.9

Q) Value wanted: Percent Effect (Wolbachia pipientis) of entry `Cc1nc([C@@H]2C[C@@H]3CCN(C(=O)c4occc4C)C[C@H]3O2)no1`
A) -8.664

Q) What reported Percent Effect corresponds to Cc1ccc(N(CCC#N)C(=O)CN2CCCC2c2cccs2)cc1 (stereo unspecified) on Wolbachia pipientis?
A) -26.13

Q) Request body: readout Percent Effect, system Wolbachia pipientis, query `Cc1nc([C@H]2C[C@H]3CN(C(=O)c4ccoc4C)CC[C@@H]3O2)no1` . Return the value.
A) -4.157
